Reference for the values: PubChem BioAssay AID492956

- target under test: Platelet-activating factor acetylhydrolase 2, cytoplasmic (Homo sapiens) (UniProt Q99487)
- procedure text: inhibition of cytoplasmic PAF acetylhydrolase 2 – biochemical, fluorescence polarization, human, primary screen (AID 492956);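 further: inhibitors block probe labeling of enzyme so polarization drops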
- conditions: recombinant PAFAH2, FP-rhodamine activity probe, at 3.39 µM
In all, about 340,000 compounds went through this assay and about 3,300 (0.97%) were called active.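 How the source made its calls: active means inhibition above the mean over all tested compounds plus 3 SD (cut at about 30% in these data); inactive means the rest.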 Shown is part of a subset that was picked to be rich in actives.
Outcomes: active, inactive

> print(dat)
                                    compound     label
 1  O=C(COc1ccc(S(=O)(=O)N2CCCCC2)cc1)NCc1ccccn1  inactive
 2  Cc1ccc(C)c(C(=O)COC(=O)Cn2[nH]c(=O)c3ccccc3c2=O)c1  inactive
 3  Cc1cccc(C)c1NC(=O)CN1C(=O)C(C)Oc2ccccc21 (stereo not given)  inactive
 4  N#CCC(=O)Nc1ccc(C(=O)OCC(=O)Nc2sc3c(c2C#N)CCCC3)cc1  inactive
 5   O=C(O)/C=C/c1ccc(S(=O)(=O)N2CCCCCC2)cc1  inactive
 6     COc1ccccc1-c1cnn2c(N3CCOCC3)cc(C)nc12  inactive
 7  CC(C)c1ccc(NC(=O)COC(=O)c2ccc(CN3CCCC3=O)cc2)cc1    active
 8  O=C(COC(=O)/C=C/c1ccc(S(=O)(=O)N2CCCCCC2)cc1)NCc1ccccc1Cl    active
 9         CN(C)c1ccc2c(=O)[nH][nH]c(=O)c2c1  inactive
10  O=C(c1ccc(=O)[nH]c1)N(Cc1ccco1)C1(C(=O)NC2CCCCC2)CCCCC1  inactive
